# Tested on: Trypanosoma cruzi
# Test: Antiparasitic activity against Trypanosoma cruzi 320I04 epimastigotes […] after 72 hrs
# Format: functional, organism-based
Quantity Kind: IC90

These recorded examples may help you get a feel for the data.
COc1cccc([C@@H]2C[C@@H]3Cc4ccc5ccccc5c4N2O3)c1 = > 300 µM
c1ccc([C@@H]2C[C@@H]3Cc4ccc5ccccc5c4N2O3)cc1 = > 350 µM

Turning to the following molecule.
Measured IC90 of "Fc1ccc([C@@H]2C[C@@H]3Cc4ccc5ccccc5c4N2O3)cc1" : > 300 µM

###

# Test: Cytotoxicity against human THP1 cells after 72 hrs by MTT assay
# Type: cell-based
# Measurement Context: THP-1 cells
Quantity Kind: CC50 at 72 h

Brc1ccc([C@@H]2C[C@@H]3Cc4ccc5ccccc5c4N2O3)cc1 = > 250 µM

Measured CC50 at 72 h of "Fc1ccc([C@@H]2C[C@@H]3Cc4ccc5ccccc5c4N2O3)cc1" : > 300 µM

Measured CC50 at 72 h of "Cc1cccc([C@@H]2C[C@@H]3Cc4ccc5ccccc5c4N2O3)c1" : > 300 µM
